# system-tested: human Peroxisome Proliferator-activated Receptor alpha (PPARa), PPARA (gene 5465)
# experimental-protocol: NVS_NR_hPPARa: NovaScreen (NVS) Nuclear Receptor Binding Assay for human Peroxisome Proliferator-activated Receptor alpha (PPARa) (AID 2283359);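 further: activity means loss of TR-FRET signal versus DMSO baseline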
Records with an inconclusive call do not appear. Calls of active or inactive are those of the source. How the source made its calls: active means hit-call score of the fitted dose curve at least 0.9, where 1 is the maximum; inconclusive means response in the unintended direction; inactive means score below 0.9.
value-kind: AC50

C#C[C@]1(O)CC[C@H]2[C@@H]3CCc4cc(O)ccc4[C@H]3CC[C@@]21C ... inactive
CCCCN(CCCC)CCCCCCN(CCCC)CCCC ... inactive
CN1CCc2cccc3c2[C@H]1Cc1ccc(O)c(O)c1-3 ... 0.279 µM (active)
CC/C(=C(\c1ccccc1)c1ccc(OCCN(C)C)cc1)c1ccccc1 ... inactive

----------
# Read-out: Plasminogen activator inhibitor-1 (PAI1), SERPINE1 (gene 5054)
# experimental-protocol: BSK_hDFCGF_PAI1: BioMAP Diversity Plus: hDFCGF Assay for Plasminogen activator inhibitor-1 (PAI1) Biomarker Activity (AID 2283066)
# experimental-conditions: primary human foreskin fibroblasts; actives raise or lower the signal
Calls of active or inactive are those of the source. The calls were made as follows: active = hit-call score of the fitted dose curve at least 0.9, where 1 is the maximum; inactive = score below 0.9.
Outcome codes: active, inactive

Nc1ccc(N)c([N+](=O)[O-])c1 ... inactive
CC(=O)CCC=C(C)CCC=C(C)C ... inactive
O=C(O)C(F)(F)C(F)(F)C(F)(F)C(F)(F)C(F)(F)C(F)(F)C(F)(F)C(F)F ... inactive
CC(=O)OC(C)(C)C1CC=C(C)CC1 (stereo unspecified) ... active
COC(=O)c1ccc(C(=O)OC)cc1 ... inactive
CC1=CC(C)C(C=O)C(C)C1 (stereo unspecified) (tested in a mixture with another compound) ... inactive
CC(=O)OCC=C(C)CCC=C(C)CCC=C(C)C ... active
O=S(=O)(O)C(F)(F)C(F)(F)OC(F)(F)C(F)(F)F ... inactive
O=C(O)C(F)(F)OC(F)(F)C(F)(F)OC(F)(F)C(F)(F)C(F)(F)C(F)(F)F ... inactive
C#C[C@]1(O)CC[C@H]2[C@@H]3CCc4cc(O)ccc4[C@H]3CC[C@@]21C ... inactive
C=C(F)C(=O)OC(C(F)(F)F)C(F)(F)F ... inactive

----------
# experimental-protocol: ATG_NRF2_ARE_CIS: Attagene CIS-FACTORIAL HepG2 Assay for human Nuclear Factor Erythroid 2 Related Factor 2 (NFR2) response to Antioxidant Response Elements (ARE) (AID 2282992)
# experimental-conditions: HepG2 Attagene ARE/NRF2 reporter, transcription factor activity; actives raise or lower the signal
Activity calls are given as the source filed them. How the source made its calls: active means hit-call score of the fitted dose curve at least 0.9, where 1 is the maximum; inactive means score below 0.9.
Labels: class 1 = active, class 0 = inactive

C=C1CC/C=C(\C)CC[C@@H]2[C@@H]1CC2(C)C ... class 1
CCOC(=O)CC(C)C ... class 0
C=C(C)C(=O)OCCN(C)C ... class 0
COc1ccc(C(C)=O)cc1 ... class 0
C=C1CC[C@H]2O[C@]2(C)CC[C@@H]2[C@@H]1CC2(C)C ... class 0
CC(=O)C1C(=O)C=C(C)OC1=O (stereo not given) ... class 0
CCCCCc1cccc(=O)o1 ... class 1
COC(=O)C(C)Oc1ccc(Oc2ncc(C(F)(F)F)cc2Cl)cc1 (stereo not given) ... class 0
CCCCN(CCCC)CCCCCCN(CCCC)CCCC ... class 0
CC(O)CN (stereo not given) ... class 0
CC(CO)(CO)[N+](=O)[O-] ... class 0
Cc1cc(O)c(C)c(C)c1O ... class 1
O=c1cc(-c2ccc(O)cc2)oc2cc(O)cc(O)c12 ... class 0
CC(=O)CCc1ccc(O)cc1 ... class 0
c1ccc(Sc2ccccc2)cc1 ... class 0

Values were extracted from PubChem BioAssay (EPA / NIEHS).
